FYI, the data here is from patent US20050227999A1.

- measurement.target: rat brain N-type calcium channel subunits (α1B+α2δ+β1b cDNA subunits) (Rattus norvegicus)
- Construct: expressed in transfected cells; host or cells: HEK 293
- Sequence (Q02294 whole entry): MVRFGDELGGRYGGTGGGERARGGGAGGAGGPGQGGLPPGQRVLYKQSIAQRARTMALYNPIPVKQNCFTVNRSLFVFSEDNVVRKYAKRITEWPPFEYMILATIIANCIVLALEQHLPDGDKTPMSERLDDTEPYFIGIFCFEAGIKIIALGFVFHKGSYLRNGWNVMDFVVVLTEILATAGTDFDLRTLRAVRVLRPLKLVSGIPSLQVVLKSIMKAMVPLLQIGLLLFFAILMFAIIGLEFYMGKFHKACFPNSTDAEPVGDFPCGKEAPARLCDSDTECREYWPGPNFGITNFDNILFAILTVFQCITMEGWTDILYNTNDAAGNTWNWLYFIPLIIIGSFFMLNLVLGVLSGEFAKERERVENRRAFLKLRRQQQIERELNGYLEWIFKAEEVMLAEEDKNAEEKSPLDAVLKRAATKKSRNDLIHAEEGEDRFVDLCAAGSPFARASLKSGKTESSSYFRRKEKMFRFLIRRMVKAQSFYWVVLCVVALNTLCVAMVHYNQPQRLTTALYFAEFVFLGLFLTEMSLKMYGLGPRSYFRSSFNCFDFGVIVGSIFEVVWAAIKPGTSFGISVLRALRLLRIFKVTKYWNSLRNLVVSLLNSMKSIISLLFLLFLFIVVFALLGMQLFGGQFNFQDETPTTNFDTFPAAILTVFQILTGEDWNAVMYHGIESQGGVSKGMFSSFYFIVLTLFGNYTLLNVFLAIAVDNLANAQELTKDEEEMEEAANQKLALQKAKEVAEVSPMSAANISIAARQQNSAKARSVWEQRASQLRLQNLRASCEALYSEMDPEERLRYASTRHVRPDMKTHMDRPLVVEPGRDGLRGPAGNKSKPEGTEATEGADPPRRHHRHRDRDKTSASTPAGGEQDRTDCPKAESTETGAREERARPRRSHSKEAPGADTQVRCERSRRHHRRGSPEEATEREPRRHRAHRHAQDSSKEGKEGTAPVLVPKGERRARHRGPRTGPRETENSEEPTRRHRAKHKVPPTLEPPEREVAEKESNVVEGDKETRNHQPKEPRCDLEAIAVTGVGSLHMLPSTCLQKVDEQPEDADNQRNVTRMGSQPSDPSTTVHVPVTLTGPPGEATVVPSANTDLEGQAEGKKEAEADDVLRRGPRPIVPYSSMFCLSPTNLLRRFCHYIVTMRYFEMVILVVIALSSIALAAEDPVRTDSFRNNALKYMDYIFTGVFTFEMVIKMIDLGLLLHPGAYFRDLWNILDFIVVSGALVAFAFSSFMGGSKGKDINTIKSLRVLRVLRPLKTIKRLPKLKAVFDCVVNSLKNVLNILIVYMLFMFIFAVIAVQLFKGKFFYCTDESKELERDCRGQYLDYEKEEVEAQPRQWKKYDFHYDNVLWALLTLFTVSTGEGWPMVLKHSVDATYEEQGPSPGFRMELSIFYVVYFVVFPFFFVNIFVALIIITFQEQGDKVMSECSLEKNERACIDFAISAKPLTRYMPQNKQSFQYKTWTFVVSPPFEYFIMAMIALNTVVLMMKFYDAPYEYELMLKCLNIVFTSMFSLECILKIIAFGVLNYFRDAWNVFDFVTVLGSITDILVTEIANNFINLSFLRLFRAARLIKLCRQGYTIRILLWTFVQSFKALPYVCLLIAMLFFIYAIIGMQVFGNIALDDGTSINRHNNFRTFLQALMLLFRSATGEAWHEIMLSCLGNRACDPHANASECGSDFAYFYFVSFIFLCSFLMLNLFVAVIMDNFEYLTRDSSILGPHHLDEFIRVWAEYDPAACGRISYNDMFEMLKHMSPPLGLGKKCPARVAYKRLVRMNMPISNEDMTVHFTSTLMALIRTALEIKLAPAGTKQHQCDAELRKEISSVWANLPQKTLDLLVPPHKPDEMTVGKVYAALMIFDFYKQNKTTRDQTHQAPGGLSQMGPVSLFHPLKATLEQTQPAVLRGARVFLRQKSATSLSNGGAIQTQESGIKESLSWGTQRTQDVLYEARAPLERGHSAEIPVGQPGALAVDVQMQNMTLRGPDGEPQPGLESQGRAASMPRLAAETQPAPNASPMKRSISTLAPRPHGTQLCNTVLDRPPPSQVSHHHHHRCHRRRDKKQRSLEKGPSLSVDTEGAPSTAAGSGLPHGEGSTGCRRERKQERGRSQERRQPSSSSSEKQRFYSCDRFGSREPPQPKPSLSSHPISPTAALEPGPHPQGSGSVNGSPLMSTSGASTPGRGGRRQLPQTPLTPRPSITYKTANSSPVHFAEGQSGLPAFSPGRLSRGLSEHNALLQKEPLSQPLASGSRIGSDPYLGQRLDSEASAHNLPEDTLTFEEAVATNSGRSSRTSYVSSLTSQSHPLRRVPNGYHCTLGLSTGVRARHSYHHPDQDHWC
- Sequence (P54290 25-944 partner limits assumed): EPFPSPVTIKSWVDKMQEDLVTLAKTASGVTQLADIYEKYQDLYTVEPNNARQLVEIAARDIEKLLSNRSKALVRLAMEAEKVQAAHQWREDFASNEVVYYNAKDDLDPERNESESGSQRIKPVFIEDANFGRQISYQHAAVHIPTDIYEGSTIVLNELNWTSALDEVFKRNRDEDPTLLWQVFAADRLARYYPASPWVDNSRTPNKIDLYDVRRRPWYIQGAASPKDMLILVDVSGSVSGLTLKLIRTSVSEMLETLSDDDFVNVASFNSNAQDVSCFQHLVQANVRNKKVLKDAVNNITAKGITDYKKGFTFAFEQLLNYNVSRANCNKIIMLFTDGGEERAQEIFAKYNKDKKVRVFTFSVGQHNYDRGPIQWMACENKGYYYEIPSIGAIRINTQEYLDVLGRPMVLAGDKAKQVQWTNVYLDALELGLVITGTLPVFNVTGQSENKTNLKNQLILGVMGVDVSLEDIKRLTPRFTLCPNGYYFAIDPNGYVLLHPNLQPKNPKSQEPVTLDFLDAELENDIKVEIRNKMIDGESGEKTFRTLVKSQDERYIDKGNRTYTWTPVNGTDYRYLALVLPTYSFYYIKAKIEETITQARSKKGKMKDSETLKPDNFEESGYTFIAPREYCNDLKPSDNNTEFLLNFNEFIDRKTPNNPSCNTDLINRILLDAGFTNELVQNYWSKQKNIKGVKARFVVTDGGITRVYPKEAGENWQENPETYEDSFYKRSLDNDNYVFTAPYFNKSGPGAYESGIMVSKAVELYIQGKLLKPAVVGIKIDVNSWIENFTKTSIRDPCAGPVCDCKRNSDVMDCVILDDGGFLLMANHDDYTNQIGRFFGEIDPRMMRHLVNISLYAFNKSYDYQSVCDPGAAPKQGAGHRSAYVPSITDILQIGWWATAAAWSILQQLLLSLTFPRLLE
- Sequence (P54290 945-1091 partner limits assumed): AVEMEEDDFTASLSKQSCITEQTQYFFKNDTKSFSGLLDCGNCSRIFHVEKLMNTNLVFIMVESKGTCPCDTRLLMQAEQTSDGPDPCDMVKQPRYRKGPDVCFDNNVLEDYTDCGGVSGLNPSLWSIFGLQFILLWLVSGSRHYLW
- Sequence (P54283 whole entry partner): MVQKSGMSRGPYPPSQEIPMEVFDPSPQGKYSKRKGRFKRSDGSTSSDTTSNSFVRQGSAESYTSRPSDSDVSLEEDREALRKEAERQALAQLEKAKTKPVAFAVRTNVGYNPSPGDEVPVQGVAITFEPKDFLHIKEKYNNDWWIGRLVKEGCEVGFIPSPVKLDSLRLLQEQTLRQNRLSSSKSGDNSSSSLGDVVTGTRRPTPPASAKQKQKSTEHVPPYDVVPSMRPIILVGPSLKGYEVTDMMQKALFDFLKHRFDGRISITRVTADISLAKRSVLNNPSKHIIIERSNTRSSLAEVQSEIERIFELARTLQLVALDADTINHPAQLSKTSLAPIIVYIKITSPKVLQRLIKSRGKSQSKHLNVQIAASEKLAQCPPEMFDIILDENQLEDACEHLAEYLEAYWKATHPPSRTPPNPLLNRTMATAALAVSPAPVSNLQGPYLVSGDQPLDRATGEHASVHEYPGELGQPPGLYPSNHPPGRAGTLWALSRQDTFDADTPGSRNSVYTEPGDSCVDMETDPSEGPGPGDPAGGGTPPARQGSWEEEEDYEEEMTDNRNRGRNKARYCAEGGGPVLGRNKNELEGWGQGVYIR
- experiment.description: N-type calcium channel block, whole cell patch clamp in transfected HEK 293 cells
- Type: cell-based
- measurement.conditions: low frequency stimulation 0.067 Hz (tonic block); holding potential −80 mV to +10 mV; read-out: IC50 @ 0.067 Hz
measured.parameter: IC50 (nM)

[
  {
    "molecule": "O=C(CN1CCN(C(c2ccccc2)c2ccc(Cl)cc2Cl)CC1)N(c1ccccc1)c1ccccc1 (centres unmarked) [Compound 17]",
    "measured.parameter": "IC50",
    "result.units": "nM",
    "reading": 830
  },
  {
    "molecule": "O=C(CN(c1ccccc1)c1ccccc1)N1CCN(C(c2ccccc2)c2cccc(Cl)c2)CC1 (centres unmarked) [Compound 5]",
    "measured.parameter": "IC50",
    "result.units": "nM",
    "reading": 310
  },
  {
    "molecule": "O=C(CN1CCN(C(c2ccccc2)c2ccccc2)CC1)N(c1ccccc1)c1ccccc1 [Compound 16]",
    "measured.parameter": "IC50",
    "result.units": "nM",
    "reading": 290
  }
]

P. O=C(CN1CCN(C(c2ccccc2)c2cccc(Cl)c2)CC1)N(c1ccccc1)c1ccccc1 (centres unmarked) [Compound 20]
Q. O=C(CN(c1ccccc1)c1ccccc1)N1CCN(C(c2ccccc2)c2cccc(Cl)c2Cl)CC1 (centres unmarked) [Compound 7]
Request: Given the listed items, does P or Q have the lesser reported IC50? Answer with the label corresponding to your selection.
Response: Q

A. Cc1ccc(C(c2ccccc2)N2CCN(C(=O)CN(c3ccccc3)c3ccccc3)CC2)c(C)c1 (centres unmarked) [Compound 2]
B. O=C(CN(c1ccccc1)c1ccccc1)N1CCN(C(c2ccccc2)c2ccccc2)CC1 [Compound 1]
C. O=C(CN1CCN(C(c2ccccc2)c2ccc(Cl)cc2)CC1)N(c1ccccc1)c1ccccc1 (centres unmarked) [Compound 19]
D. O=C(CN(c1ccccc1)c1ccccc1)N1CCN(C(c2ccccc2)c2ccc(Cl)cc2)CC1 (centres unmarked) [Compound 4]
Request: Order the records, beginning with the lowest IC50 and ending with the highest. Sort and list the labels as requested.
Response: C, A, D, B

1. CN(C)CCCN1CCN(CC(=O)N(c2ccccc2)c2ccccc2)CC1 [Compound 26]
2. CN1CCCC(CN2CCN(C(=O)CN(c3ccccc3)c3ccccc3)CC2)C1 (centres unmarked) [Compound 10]
Request: Field: entry with larger IC50 (options 1 / 2 ). Lab log: write the label of the selected item as the result.
Response: 2
(2: 1100 nM, 1: 350 nM)
